# Assay Name: Cytotoxicity against human OVCAR-3 cells
# Format: cell-based
Please go through the items and note down their GI50.
One number for each entry, in µM.

Quick request: GI50 for each listed item, please.
1. NCCCn1c2c(c3ccccc3c1=O)C(=O)c1ccccc1-2
2. COc1cc2c3c(n(CCCNCCNCCCN)c(=O)c2cc1OC)-c1cc2c(cc1C3=O)OCO2

Reply:
1. 1.38
2. 8.1

Give GI50 for each listed item.
1. O=C1c2ccccc2-c2c1c1ccccc1c(=O)n2Cc1cccnc1
2. NCCCCCCCCCCn1c2c(c3ccccc3c1=O)C(=O)c1ccccc1-2
3. NCCCCCCCn1c2c(c3ccccc3c1=O)C(=O)c1ccccc1-2
4. NCCCCCCCCn1c2c(c3ccccc3c1=O)C(=O)c1ccccc1-2
5. CC(C)(C)OC(=O)NCCCCCCCn1c2c(c3ccccc3c1=O)C(=O)c1ccccc1-2
6. CC(C)(C)OC(=O)NCCCCCCCCCCCn1c2c(c3ccccc3c1=O)C(=O)c1ccccc1-2

Reply:
1. 13.8
2. 10.7
3. 1.7
4. 3.47
5. 33.9
6. 70.8

Ask: Entry NCCCCCCCCCCCCn1c2c(c3ccccc3c1=O)C(=O)c1ccccc1-2 needs its GI50 filled in; supply it.
Reply: 17.8

###

Answer each item with its documented GI50.
# Assay Name: Cytotoxicity against human OVCAR-3 cells
# Assay type: cell-based
Numbers only, in µM.

The examples below pair each entry with its known result.
INSERT INTO assay_data (smiles_text, reported_property, recorded_value) VALUES
  ('O=C1c2ccccc2-c2c1c1ccccc1c(=O)n2Cc1ccccn1', 'GI50', 13.8),
  ('NCCCCCCCCCn1c2c(c3ccccc3c1=O)C(=O)c1ccccc1-2', 'GI50', 9.55);

Ask: Using known records, supply GI50 for CC(C)(C)OC(=O)NCCCCCCCCCn1c2c(c3ccccc3c1=O)C(=O)c1ccccc1-2
Reply: 28.8

###

# Assay Name: Cytotoxicity against human SN12C cells
# Format: cell-based
The threshold is 0.5 µM. Values of GI50 beneath it are tagged met; values meeting or exceeding it are tagged not met.

Would you please look over these solved cases?
INSERT INTO assay_data (smiles_text, group) VALUES
  ('NCCCCCCn1c2c(c3ccccc3c1=O)C(=O)c1ccccc1-2', 'not met'),
  ('O=C1c2ccccc2-c2c1c1ccccc1c(=O)n2Cc1ccccn1', 'not met'),
  ('Nn1c2c(c3ccccc3c1=O)C(=O)c1ccccc1-2', 'not met'),
  ('CC(C)(C)OC(=O)NCCCCCCCn1c2c(c3ccccc3c1=O)C(=O)c1ccccc1-2', 'not met'),
  ('NCCCCCCCCCCn1c2c(c3ccccc3c1=O)C(=O)c1ccccc1-2', 'not met'),
  ('O=C1c2ccccc2-c2c1c1ccccc1c(=O)n2CCc1cccnc1', 'not met'),
  ('NCCCCCn1c2c(c3ccccc3c1=O)C(=O)c1ccccc1-2', 'met'),
  ('NCCCCCCCCCn1c2c(c3ccccc3c1=O)C(=O)c1ccccc1-2', 'not met'),
  ('CC(C)(C)OC(=O)NCCCCCCCCCn1c2c(c3ccccc3c1=O)C(=O)c1ccccc1-2', 'not met');

# evaluate next
Ask: Below 0.5 µM on GI50? Entry NCCCCn1c2c(c3ccccc3c1=O)C(=O)c1ccccc1-2
Reply: met

###

# Assay Name: Cytotoxicity against human OVCAR-3 cells
# Type: cell-based
// classify: if (GI50 < 2 µM) 1 else 0

Take a look at these entries with their results.
INSERT INTO measurements (smiles_text, group) VALUES
  ('NCCCCn1c2c(c3ccccc3c1=O)C(=O)c1ccccc1-2', 1),
  ('O=C1c2ccccc2-c2c1c1ccccc1c(=O)n2CCc1ccccn1', 0),
  ('NCCCCCCCCCCCn1c2c(c3ccccc3c1=O)C(=O)c1ccccc1-2', 0),
  ('NCCCCCn1c2c(c3ccccc3c1=O)C(=O)c1ccccc1-2', 1);

Shifting focus to the molecule that follows.
Ask: A record lists COc1cc2c3c(n(CCCNCCNCCN)c(=O)c2cc1OC)-c1cc2c(cc1C3=O)OCO2 . Is its GI50 below 2 µM?
Reply: 1

###

# Assay Name: Cytotoxicity against human UACC62 cells
# Type: cell-based
# Details: UACC-62 cells
Binning scheme for GI50: bucket A: < 3 µM; bucket B: ≥ 3 µM and < 20 µM; bucket C: ≥ 20 µM

INSERT INTO measurements (smiles_text, group) VALUES
  ('NCCCCCCCCCCCn1c2c(c3ccccc3c1=O)C(=O)c1ccccc1-2', 'bucket A'),
  ('NCCCCCn1c2c(c3ccccc3c1=O)C(=O)c1ccccc1-2', 'bucket A'),
  ('NCCCCCCn1c2c(c3ccccc3c1=O)C(=O)c1ccccc1-2', 'bucket A'),
  ('CC(C)(C)OC(=O)NCCCCCCCCCCCCn1c2c(c3ccccc3c1=O)C(=O)c1ccccc1-2', 'bucket C'),
  ('NCCCCCCCCn1c2c(c3ccccc3c1=O)C(=O)c1ccccc1-2', 'bucket B'),
  ('COc1cc2c3c(n(CCCNCCNCCN)c(=O)c2cc1OC)-c1cc2c(cc1C3=O)OCO2', 'bucket A'),
  ('CC(C)(C)OC(=O)NCCCCCCCCCCCn1c2c(c3ccccc3c1=O)C(=O)c1ccccc1-2', 'bucket C'),
  ('NCCCCCCCCCCCCn1c2c(c3ccccc3c1=O)C(=O)c1ccccc1-2', 'bucket B');

# next compound below
Ask: Field: class (GI50) — entry: CC(C)(C)OC(=O)NCCCCCCCCn1c2c(c3ccccc3c1=O)C(=O)c1ccccc1-2
Reply: bucket B

###

Exercise: state measured GI50 for each of the molecules provided.
# Assay Name: Cytotoxicity against human SN12C cells
# Type: cell-based
Numbers only, in µM.

INSERT INTO results (smiles_text, readout_unit, recorded_value) VALUES
  ('O=C1c2ccccc2-c2c1c1ccccc1c(=O)n2Cc1cccnc1', 'µM', 13.8),
  ('NCCCCCCCn1c2c(c3ccccc3c1=O)C(=O)c1ccccc1-2', 'µM', 1.66);

Kindly consider the entry below.
Ask: Report measured GI50; entry is NCCCCCCCCCCCCn1c2c(c3ccccc3c1=O)C(=O)c1ccccc1-2
Reply: 13.5

###

# Assay Name: Cytotoxicity against human DU145 cells
# Assay type: cell-based
# Details: DU-145 cells
Give GI50 for every item shown.
One number for each entry, in µM.

Use the examples below as a reference point.
INSERT INTO assay_data (smiles_text, recorded_value) VALUES
  ('NCCn1c2c(c3ccccc3c1=O)C(=O)c1ccccc1-2', 0.76),
  ('NCCCCCCn1c2c(c3ccccc3c1=O)C(=O)c1ccccc1-2', 0.603),
  ('NCCCCCCCCCn1c2c(c3ccccc3c1=O)C(=O)c1ccccc1-2', 6.03);

Please look at the following compound next.
Ask: Consider the compound NCCCCCCCCCCCn1c2c(c3ccccc3c1=O)C(=O)c1ccccc1-2 . State its measured GI50.
Reply: 4.57

###

# Assay Name: Cytotoxicity against human UACC62 cells
# Format: cell-based
# Details: UACC-62 cells
Response field label: string, one of Criterion met (GI50 strictly below 9 µM) or Criterion not met.

Below, 3 compounds whose answers are already recorded.
INSERT INTO assay_data (smiles_text, group) VALUES
  ('NCCCCCCCCCn1c2c(c3ccccc3c1=O)C(=O)c1ccccc1-2', 'Criterion not met'),
  ('COc1cc2c3c(n(CCCNCCNCCCN)c(=O)c2cc1OC)-c1cc2c(cc1C3=O)OCO2', 'Criterion met'),
  ('NCCn1c2c(c3ccccc3c1=O)C(=O)c1ccccc1-2', 'Criterion met');

Ask: Hi there! Is GI50 for CC(C)(C)OC(=O)NCCCCCCCCCn1c2c(c3ccccc3c1=O)C(=O)c1ccccc1-2 below 9 µM, do you know?
Reply: Criterion not met

Ask: Quick check: does CC(C)(C)OC(=O)NCCCCCCCCCCn1c2c(c3ccccc3c1=O)C(=O)c1ccccc1-2 have GI50 under 9 µM?
Reply: Criterion not met

Ask: Consider the compound O=C1c2ccccc2-c2c1c1ccccc1c(=O)n2Cc1ccccn1 . Is its GI50 strictly less than 9 µM?
Reply: Criterion not met

Ask: Here's an entry: NCCCCCCCn1c2c(c3ccccc3c1=O)C(=O)c1ccccc1-2 . Is its GI50 below 9 µM?
Reply: Criterion met

Ask: Given O=C1c2ccccc2-c2c1c1ccccc1c(=O)n2CCc1cccnc1 , is recorded GI50 strictly lower than 9 µM?
Reply: Criterion not met

Ask: Lab note: GI50 threshold 9 µM. Does this compound come in strictly under it? COc1cc2c3c(n(CCCNCCCNCCCN)c(=O)c2cc1OC)-c1cc2c(cc1C3=O)OCO2
Reply: Criterion not met

Ask: Determine if COc1cc2c3c(n(CCCNCCCNCCN)c(=O)c2cc1OC)-c1cc2c(cc1C3=O)OCO2 shows GI50 strictly lower than 9 µM.
Reply: Criterion not met

###

Assign GI50 to each entry below.
# Assay Name: Cytotoxicity against human HCT116 cells
# Format: cell-based
# Details: HCT-116 cells

A selection of reference data follows.
INSERT INTO measurements (smiles_text, recorded_value) VALUES
  ('NCCCCCCn1c2c(c3ccccc3c1=O)C(=O)c1ccccc1-2', '0.912 µM'),
  ('NCCCn1c2c(c3ccccc3c1=O)C(=O)c1ccccc1-2', '0.18 µM'),
  ('NCCCCn1c2c(c3ccccc3c1=O)C(=O)c1ccccc1-2', '0.1 µM'),
  ('NCCCCCCCCCCn1c2c(c3ccccc3c1=O)C(=O)c1ccccc1-2', '2.75 µM'),
  ('NCCCCCCCCn1c2c(c3ccccc3c1=O)C(=O)c1ccccc1-2', '1.66 µM');

Could you report GI50 for every entry in the following list?
1. CC(C)(C)OC(=O)NCCCCCCCCn1c2c(c3ccccc3c1=O)C(=O)c1ccccc1-2
2. NCCCCCCCCCn1c2c(c3ccccc3c1=O)C(=O)c1ccccc1-2

Reply:
25.7 µM
6.46 µM
